test system: NOMO1; assay: cell viability relative to DMSO control; higher = less cytotoxic; settings: HPLM + 10% dialyzed FBS; 48 h; 1.71 µM
MEASUREMENT KIND: cell viability
// unit must come after the numeric part

Known results for molecules:
CC(C)(C)C(=O)OCOP(=O)(COCCn1cnc2c(N)ncnc21)OCOC(=O)C(C)(C)C	33.9%
Oc1ccc(C2CCN(c3ccnc4ccccc34)CC2)cc1O	123%
N[S+](=O)([O-])c1cc(Cl)c(Cl)c([S+](N)(=O)[O-])c1	98.3%

Let's switch to this molecule now.
Inquiry: # cell viability lookup, item `CC(C)[C@@H](C[S+](=O)([O-])C(C)C)N1C(=O)[C@@](C)(CC(=O)O)C[C@H](c2cccc(Cl)c2)[C@H]1c1ccc(Cl)cc1`
Reply text: 35.6%
